Origin of the recorded values: the Human Domainome abundance scans (Beltran et al. 2025)

Reported abundance fitness by item:
B1: Peroxisome proliferator-activated receptor delta, residues 71 to 145; numbered along this chain, Q03181 (parent)
chain: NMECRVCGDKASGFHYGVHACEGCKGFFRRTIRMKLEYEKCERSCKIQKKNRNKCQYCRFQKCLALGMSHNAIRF

# Variants of: B1
# experiment summary: abundance fitness (aPCA) (normalised: wild type 0, dead -1); higher = more abundant; growth selection in yeast, the domain comes from the species named
# measurement parameters: Homo sapiens
Please give only the number in your answer, with no unit.

Solved entries:
E42F | -0.139
E3Y | -0.182
K54V | -0.037
K40C | -0.216
M68H | -0.771
C55A | -0.806
F75L | 0.128
G17T | -0.567

Ask | // abundance fitness lookup, key: `N53I`
Reply | -0.051

Ask | // abundance fitness lookup, key: `C21K`
Reply | -0.597

Ask | // abundance fitness lookup, key: `E37C`
Reply | 0.011

Ask | // abundance fitness lookup, key: `N51Y`
Reply | -0.363

Ask | // abundance fitness lookup, key: `S12H`
Reply | -0.238
